Test system: NCI-H226 lung
Assay Text: NCI tumour cell line growth inhibition, 48 h
Respond with True for TGI values of 30 µM and above, False for values below.

{"Molecule": "CCCCCC1C2C(=O)NC(=O)C1C(=O)NC2=O (centres undefined)", "Assigned Label": "True"}
{"Molecule": "COc1c(-c2ccc3c(c2)OCO3)oc2cc3c(c(OC)c2c1=O)OCO3", "Assigned Label": "True"}
{"Molecule": "O=[N+]([O-])c1ccc(-c2ccc(C3=Nn4c(nnc4-c4ccc(Cl)cc4)SC3)o2)cc1", "Assigned Label": "True"}
{"Molecule": "CC1(C)CC(=O)C2=C(C1)OC1=C(CC(C)(C)CC1=O)C2c1ccccc1Cl (centres undefined)", "Assigned Label": "True"}
{"Molecule": "COc1cc(NS(C)(=O)=O)ccc1N1Cc2cnc3ccc4[nH]ccc1c4c23", "Assigned Label": "True"}
{"Molecule": "C=C(Cl)C(Cl)(CBr)CCC(Cl)C(C)C (centres undefined)", "Assigned Label": "True"}
{"Molecule": "Cc1ccc(SCN2CCCCC2)cc1 (tested in a mixture with another compound)", "Assigned Label": "True"}
{"Molecule": "CC(=O)OC1C(OC/C2=C/C3[C@@H](C(C)C)CC=C(C)[C@@H]3CC(OC(=O)/C=C/c3cn(C)cn3)[C@]3(C)C=C[C@@]2(O)O3)OCC(O)C1O (some centres undefined)", "Assigned Label": "True"}
{"Molecule": "CC1=C2CC3=C(C)C(=O)O[C@H]3C[C@@H](C)[C@@H]2CC1", "Assigned Label": "True"}
{"Molecule": "CCC(c1ccc(N(C)C)cc1)C1NC(=S)NC1=O (centres undefined)", "Assigned Label": "True"}

Ask: Test whether the molecule `O=S(=O)(N1CCCCN(S(=O)(=O)C(F)(F)F)CCCN(S(=O)(=O)C(F)(F)F)CCCN(S(=O)(=O)C(F)(F)F)CCCCN(S(=O)(=O)C(F)(F)F)CCCN(S(=O)(=O)C(F)(F)F)CCC1)C(F)(F)F` records TGI of 30 µM or higher.
Result: True

Ask: Does TGI meet or surpass 30 µM for `C[C@H]1C(=O)C2=C[C@H]1CCC(=O)[C@]1(C)CCCC(C)(C)[C@H]1C[C@H]2O` ?
Result: True

Ask: Could you tell me if the measured TGI of `O=C1c2ccccc2C(=O)c2c1c1cc(O)ccc1n2Cc1ccc(Cl)cc1Cl` reaches 30 µM or more?
Result: True

Ask: Threshold query (TGI >= 30 µM) on `Cc1cccc2ns[s+]c12`
Result: True

Ask: # bool: TGI of `COc1cc(/C=C/C(=O)C(C)(C)C)cc(OC)c1OC` >= 30 µM
Result: True

Ask: Is TGI at least 30 µM? Consider `CN(C)CCCN1c2ccc3ccccc3c2Sc2cccc(Cl)c21`
Result: False

Ask: hey, is TGI for this one >= 30 µM? `CN1C(=N\S(=O)(=O)c2ccc(Cl)cc2)/C(=N/N=P(c2ccccc2)(c2ccccc2)c2ccccc2)c2ccccc21`
Result: True

Ask: Does the reported TGI for O=C(O)CCCCCNC(=O)CCC(CN(CC(=O)OCc1ccccc1)CC(=O)OCc1ccccc1)N(CC(=O)OCc1ccccc1)CC(=O)OCc1ccccc1 (centres undefined) fall at or above the 30 µM mark?
Result: True

Ask: Could you tell me if the measured TGI of `Nc1cc(N)c2nc(-c3ccccc3)c(Sc3ccc(F)cc3)nc2c1` reaches 30 µM or more?
Result: True

Ask: Evaluate `COc1cc2c(cc1C)NC(=O)/C2=C/c1c(Cl)n(C)c2ccccc12` : TGI at minimum 30 µM?
Result: False

Ask: hey, is TGI for this one >= 30 µM? `Cc1ccc(-n2cc(-c3ccc(Cl)cc3)c3c(NNC(=S)NCc4ccccc4)ncnc32)cc1`
Result: True

Ask: # bool: TGI of CCCCCCCCCCCCOC1C(C(COC2OC(C(O)CO)C3OC(C)(C)OC23)OC(=O)Nc2ccc([N+](=O)[O-])cc2)OC2OC(C)(C)OC21 (centres undefined) >= 30 µM
Result: False

Ask: Is reported TGI greater than or equal to 30 µM here: `Cc1nn(-c2ccccc2)c2ncc3c(c12)C(=O)N(Cc1ccccc1)C3=O`
Result: False

Ask: Please indicate if the recorded TGI for `Cn1c(N)cc(=O)nc1N` meets or exceeds 30 µM.
Result: True

Ask: Dear colleague, could you confirm whether CC(=O)OC12CCCCC1C1(CCCC1)NC2=O (centres undefined) has TGI at or above 30 µM?
Result: True
